B1: FLOT1 (parent)
chain: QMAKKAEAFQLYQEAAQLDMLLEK

- Variants of: B1
- PROCEDURE_DETAILS: protein stability index of a GFP-peptide fusion (GPS, HEK-293T) (PSI 1-6); higher = more stable;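 note: lentivirally expressed fusions sorted by FACS into six bins by GFP to DsRed ratio, PSI derived from sequencing read proportions per bin multiplied by bin number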
- EXPERIMENTAL_CONTEXT: c terminus: a fixed tail appended
Each entry below carries its recorded protein stability index.
Enter the number alone.

K24F :: 2.2
Y12K :: 4.88
K5F :: 2.8

In: # return recorded protein stability index for input Q1R
Out: 1.69

In: Supply recorded protein stability index for M2L here.
Out: 1.84

In: Specify measured protein stability index for E7C .
Out: 1.86
